Source of measurements: patent US20210115124A1

# measurement.target: T1, human VEGF (hVEGF) (human, UniProt P15692 181-395)
# T1 construct: also called VEGF-A
# T1 sequence: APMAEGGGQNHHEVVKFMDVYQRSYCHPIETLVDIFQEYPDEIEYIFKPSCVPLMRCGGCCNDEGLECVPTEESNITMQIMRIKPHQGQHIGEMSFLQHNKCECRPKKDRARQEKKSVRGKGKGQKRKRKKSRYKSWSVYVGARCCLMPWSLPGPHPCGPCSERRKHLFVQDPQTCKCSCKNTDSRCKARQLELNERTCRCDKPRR
# experimental.protocol: SPR
Assignment: determine reported Kd for the given binders.
Kindly answer with a numeric value in nM, unit omitted.

### Prompt Can you share its Kd? I mean this binder: G6.31 HC-A40E, HC-T57E (Fab, V domains shown, Fab) VH: EVQLVESGGGLVQPGGSLRLSCAASGFTISDYWIHWVRQEPGKGLEWVAGITPAGGYEYYADSVKGRFTISADTSKNTAYLQMNSLRAEDTAVYYCARFVFFLPYAMDYWGQGTLVTVSS VL: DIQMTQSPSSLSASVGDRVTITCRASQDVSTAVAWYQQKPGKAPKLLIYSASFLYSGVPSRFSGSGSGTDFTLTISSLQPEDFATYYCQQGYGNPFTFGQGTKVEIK
### Response 0.272

### Prompt Can you share its Kd? I mean this binder: G6.31 HC-A40E, HC-T57E, LC-F83A, LC-N94A, LC-T22D (Fab, name in Kabat numbering, V domains shown, Fab) VH: EVQLVESGGGLVQPGGSLRLSCAASGFTISDYWIHWVRQEPGKGLEWVAGITPAGGYEYYADSVKGRFTISADTSKNTAYLQMNSLRAEDTAVYYCARFVFFLPYAMDYWGQGTLVTVSS VL: DIQMTQSPSSLSASVGDRVTIDCRASQDVSTAVAWYQQKPGKAPKLLIYSASFLYSGVPSRFSGSGSGTDFTLTISSLQPEDAATYYCQQGYGAPFTFGQGTKVEIK
### Response 0.597

### Prompt Can you share its Kd? I mean this binder: G6.31 LC-N94A.LC-F83A (Fab, V domains shown, Fab; also called LC-F83A, LC-N94A; LCcombo5) VH: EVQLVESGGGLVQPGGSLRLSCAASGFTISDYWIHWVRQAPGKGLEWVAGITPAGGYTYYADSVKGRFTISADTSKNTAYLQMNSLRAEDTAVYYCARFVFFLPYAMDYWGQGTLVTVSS VL: DIQMTQSPSSLSASVGDRVTITCRASQDVSTAVAWYQQKPGKAPKLLIYSASFLYSGVPSRFSGSGSGTDFTLTISSLQPEDAATYYCQQGYGAPFTFGQGTKVEIK
### Response 1.71

### Prompt Can you share its Kd? I mean this binder: G6.31 LC-F83A, LC-N94A, LC-T22D (Fab, name in Kabat numbering, V domains shown, Fab) VH: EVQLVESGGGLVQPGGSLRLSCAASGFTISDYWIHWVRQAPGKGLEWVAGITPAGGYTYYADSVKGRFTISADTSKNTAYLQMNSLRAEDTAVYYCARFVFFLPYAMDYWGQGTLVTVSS VL: DIQMTQSPSSLSASVGDRVTIDCRASQDVSTAVAWYQQKPGKAPKLLIYSASFLYSGVPSRFSGSGSGTDFTLTISSLQPEDAATYYCQQGYGAPFTFGQGTKVEIK
### Response 0.558

### Prompt Can you share its Kd? I mean this binder: G6.31 AAEE (LC-N94A.LC-F83A.HC-A40E.HC-T57E) (Fab, V domains shown, Fab; also called HC-A40E, HC-T57E, LC-F83A, LC-N94A) VH: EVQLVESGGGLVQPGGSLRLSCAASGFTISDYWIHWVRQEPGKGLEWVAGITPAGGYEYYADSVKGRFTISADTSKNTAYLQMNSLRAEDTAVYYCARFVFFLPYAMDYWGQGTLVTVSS VL: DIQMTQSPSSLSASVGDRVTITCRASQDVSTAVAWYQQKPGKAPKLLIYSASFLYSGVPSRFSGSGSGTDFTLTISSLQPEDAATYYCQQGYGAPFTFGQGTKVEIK
### Response 0.584
